solvation free energy, 298 K: recorded values
test: solvent given as SMILES; settings: in CC(=O)O
measurement-label: solvation free energy, 298 K (kcal/mol)

1. CCCCCC: -2.89
2. CC(C)CCC(C)C: -3.59
3. CCCCC: -2.36
4. CCCCCCCCC: -4.5
5. CCCCCCCC: -3.96
6. CCCCCCC: -3.43
7. CCO: -5.22
8. C[N+](=O)[O-]: -4.86
9. CC(C)C(C)C(C)C: -3.77

----------
assay: solvent given as SMILES; settings: in C1COCCO1
measurement-label: solvation free energy, 298 K

1. CC(=O)CC(C)C: -5.32 kcal/mol
2. C=CC: -1.36 kcal/mol
3. c1ccncc1: -5.69 kcal/mol
4. O=C(O)c1cccc([N+](=O)[O-])c1C(=O)O: -18.7 kcal/mol
5. CCCCC(C)=O: -5.69 kcal/mol
6. c1cc2ccc3cccc4ccc(c1)c2c34: -13 kcal/mol
7. CCCCC: -2.6 kcal/mol

----------
test: solvent given as SMILES; conditions: in CCC(C)O
measurement-label: solvation free energy, 298 K

1. c1ccncc1: -5.63 kcal/mol
2. c1ccc2ccccc2c1: -6.88 kcal/mol
3. CCCCCCCCCCCCCCCCCCCCCCC: -14.1 kcal/mol
4. Nc1ccc(C(=O)O)cc1: -14 kcal/mol
5. CC(=O)CC(C)=O: -5.05 kcal/mol
6. O=C(O)c1cc([N+](=O)[O-])ccc1Cl: -12.9 kcal/mol
7. C=CC: -1.32 kcal/mol
8. CC(F)F: -1.32 kcal/mol
9. NC(=O)c1ccccc1O: -12.2 kcal/mol
10. C=C(C)C: -1.99 kcal/mol
11. O=S(=O)(c1ccccc1)c1ccccc1: -13.4 kcal/mol
12. O=C(O)c1cccc([N+](=O)[O-])c1: -12.3 kcal/mol
13. c1ccc2cc3ccccc3cc2c1: -9.9 kcal/mol
14. O=C(Oc1ccccc1)Oc1ccccc1: -11.2 kcal/mol
15. O=[N+]([O-])c1cccc2ccccc12: -9.94 kcal/mol
16. c1ccc2c(c1)Sc1ccccc1S2: -11.2 kcal/mol
17. c1cc2ccc3cccc4ccc(c1)c2c34: -11.3 kcal/mol

----------
# solvation free energy, 298 K annotations
assay: solvent given as SMILES; conditions: in CCCCCC
measurement-label: solvation free energy, 298 K (kcal/mol)

1) CCC(C)(C)OC: -4.47
2) CCCCCOC(C)=O: -5.57
3) CCC(=O)OC: -3.65
4) Oc1ccc(Cl)cc1: -6.91
5) Cc1ccc(C)c(O)c1: -6.46
6) CCCCC#N: -4.45
7) CCc1ccccc1: -5.35
8) CCc1ccc2c(c1)C(=O)c1ccccc1C2=O: -11.9
9) CC(C)C(C)C(C)C: -5.03
10) Cc1cccc(O)c1C: -6.67
11) CC(C)(C)c1ccc(O)cc1: -7.63
12) Oc1ccccc1F: -4.69
13) C=C(C)C: -2.43
14) C[N+](=O)[O-]: -2.8
15) CCC(C)Cl (stereo unspecified): -3.84
16) CC#N: -2.41
17) c1ccc2c(c1)Sc1ccccc1S2: -11.4
18) CCCCCCO: -5.02
19) CCOC(C)=O: -3.61
20) CSC: -2.97
21) FC(F)(F)F: 0.49
22) O=[N+]([O-])c1cc[n+]([O-])cc1: -7.08
23) Cc1cccc(O)c1: -5.84
24) CCCCCCCC: -5.42
25) Cc1cc(C)c(C)cc1C: -7.24
26) C#C: -0.52
27) [N]=O: 0.47
28) O=[N+]([O-])c1cccc2ccccc12: -9.35
29) Cc1ccc(O)c(C)c1: -6.51
30) CCCCCCCCC: -6.12
31) C1CC1: -1.98
32) CCCCCCCCCCCCO: -9.26
33) Oc1cccc2ccccc12: -8.71
34) c1ccc2ccccc2c1: -7.24
35) CCCCl: -3.37
36) CCCCC(C)=O: -4.68
37) c1ccncc1: -4.19
38) CCI: -3.73
39) O=Cc1ccccc1: -5.53
40) Oc1cccc(O)c1: -5.78
41) CC(=O)C(C)(C)C: -4.34

----------
test: solvent given as SMILES; conditions: in Fc1ccccc1
measurement-label: solvation free energy, 298 K

1. CCCCCCCC: -5.11 kcal/mol
2. CCCCCCC: -4.51 kcal/mol
3. CCCCC: -3.25 kcal/mol
4. CCCCCCCCC: -5.76 kcal/mol
5. CC(C)CCC(C)C: -4.66 kcal/mol
6. NC(=O)c1ccccc1O: -10.6 kcal/mol
7. CCCCCC: -3.88 kcal/mol
8. CC(C)C(C)C(C)C: -4.75 kcal/mol
9. c1ccc2cc3ccccc3cc2c1: -11.3 kcal/mol
10. CCO: -3.32 kcal/mol
11. c1cc2ccc3cccc4ccc(c1)c2c34: -12.9 kcal/mol
12. C[N+](=O)[O-]: -4.53 kcal/mol

----------
assay: solvent given as SMILES; settings: in COC(C)(C)C
Each entry below carries its reported solvation free energy, 298 K.
measurement-label: solvation free energy, 298 K (kcal/mol)

1. CCC(C)Cl (stereo unspecified): -4.08
2. O=[N+]([O-])c1cccc2ccccc12: -10.9
3. CCCCCCCCCCCCCCCCCCCC: -13.5
4. c1cc2ccc3cccc4ccc(c1)c2c34: -12.2
5. c1ccc2c(c1)Sc1ccccc1S2: -12.1
6. CCOC(=O)OCC: -5.35
7. CCO: -3.94
8. CCCCCC: -4.01
9. CCCCCCC: -4.68
10. c1ccc2cc3ccccc3cc2c1: -10.7
11. CCCCCCCCCCCCCCCCCCCCCC: -14.9
12. CC#N: -3.67
13. FC(F)(F)C(Cl)Br (stereo unspecified): -4.69
14. c1ccc(-c2ccccc2)cc1: -9.04
15. Brc1ccc(Br)cc1: -7.73
16. O=S(=O)(c1ccccc1)c1ccccc1: -13.5

----------
assay: solvent given as SMILES; conditions: in CCCCCCCCCCCCCC
measurement-label: solvation free energy, 298 K

1) CCCCC: -2.9 kcal/mol
2) CCOC(C)=O: -3.24 kcal/mol
3) FC(F)(F)F: 1.06 kcal/mol
4) CCCCCC: -3.6 kcal/mol
5) CC(Cl)(Cl)Cl: -3.61 kcal/mol

----------
Catalogue of solvation free energy, 298 K readings, one per entry.
experiment: solvent given as SMILES; conditions: in ClCCl
measurement-label: solvation free energy, 298 K (kcal/mol)

1) c1ccc2ccccc2c1: -8.1
2) c1ccc2cc3ccccc3cc2c1: -11.8
3) CCCCOC: -4.71
4) CCOCC: -3.92
5) CCCCC: -3.07
6) CCCCCCCC: -5.08
7) CCI: -4.12
8) CI: -3.83
9) C[N+](=O)[O-]: -4.98
10) CCCCCC: -3.75
11) CCO: -3.75
12) CC#N: -4.71
13) CC(C)=O: -4.62
14) CCCCCCCCC: -5.72
15) CCOCCO: -6.06
16) CC(C)CCC(C)C: -4.64
17) CCOC(C)=O: -5.22
18) c1ccc(-c2ccccc2)cc1: -9.4
19) CCCCCCC: -4.45
20) CC(C)C(C)C(C)C: -4.74

----------
assay: solvent given as SMILES; details: in C1CCOC1
measurement-label: solvation free energy, 298 K

1) CCO: -4.51 kcal/mol
2) NC(=O)c1ccccc1O: -13.2 kcal/mol
3) O=C(O)c1cccc([N+](=O)[O-])c1C(=O)O: -19.1 kcal/mol
4) CCOCC: -3.51 kcal/mol
5) C[N+](=O)[O-]: -5.04 kcal/mol
6) CCI: -4.45 kcal/mol
7) CCCCCC: -3.9 kcal/mol
8) O=C(O)c1cccc([N+](=O)[O-])c1: -12.5 kcal/mol
9) CCC(C)Cl (stereo not drawn): -4.34 kcal/mol
10) CCCCCCC: -4.58 kcal/mol
11) FC(F)(F)F: 1 kcal/mol
12) CC(C)=O: -3.89 kcal/mol
13) CC(C)c1ccccc1: -6.5 kcal/mol
14) CCCCCCCC: -5.32 kcal/mol
15) c1cc2ccc3cccc4ccc(c1)c2c34: -13.4 kcal/mol
16) c1ccc2cc3ccccc3cc2c1: -11.9 kcal/mol
17) CCCCCCCCC: -5.94 kcal/mol
18) c1ccc2ccccc2c1: -8.21 kcal/mol

----------
# solvation free energy, 298 K per entry
test: solvent given as SMILES; settings: in CC(C)CCCC(C)CCCC(C)CCCCC(C)CCCC(C)CCCC(C)C
measurement-label: solvation free energy, 298 K (kcal/mol)

1. CCCCC: -2.8
2. C[N+](=O)[O-]: -2.56
3. CC(C)=O: -2.37
4. CCCCCC: -3.47
5. C1CCOC1: -3.35
6. CCCCCCCC: -4.83
7. CCOC(C)=O: -3.2
8. CCO: -2.01
9. Cc1cccc(O)c1: -5.78
10. CCCCCCCCC: -5.5
11. CC#N: -1.87
12. CC(C)C(C)C(C)C: -4.48
13. CC(C)CCC(C)C: -4.35
14. CC(=O)OC(C)C: -3.52
15. CCCCCCC: -4.16
